- PROTOCOL_DETAILS: NCI Yeast Anticancer Drug Screen. Data for the mlh1 rad18 strain (AID 175)
- TEST_CONTEXT: S. cerevisiae mlh1 rad18 strain growth inhibition; at 5.0 µM (retest, dose inferred, filed as 0.5)
The panel holds about 79,000 compounds, 15% with a hit somewhere; the sample as a whole holds those more often. Calls of active or inactive are those of the source. Cut-off read from the data, not from the text of the source: active = growth inhibition above about 70%; inactive = the rest.
Outcomes: active, inactive

{"columns": ["COMPOUND", "ANSWER_LABEL"],
 "data": [
  ["COc1cc(/C=C\\[N+](=O)[O-])ccc1O", "inactive"],
  ["CC(=O)C(CN(C)Cc1ccccc1)C(c1ccccc1)c1c(O)c2ccccc2oc1=O (configuration not stated)", "inactive"],
  ["CC1=C[C@H]2O[C@H]3C[C@H]4OC(=O)/C=C\\C=C\\C(=O)OCC[C@@H](C)[C@H](O)C(=O)OC[C@@]2(CC1)[C@@]4(C)[C@]31CO1", "active"],
  ["Oc1c(Cl)cc(Cl)c2ccccc12", "inactive"],
  ["C/C(CC(=O)Nc1ccc([N+](=O)[O-])cc1)=N\\Nc1ccc([N+](=O)[O-])cc1[N+](=O)[O-]", "inactive"],
  ["C[N+](C)(C)CC1CCCC1=O (configuration not stated)", "inactive"],
  ["[CH3][Sn]([CH3])([Br])[Br].c1ccc(-c2nnc(-c3ccccn3)nc2-c2ccccc2)cc1", "inactive"],
  ["[Pt].c1ccc([PH+](c2ccccc2)c2ccccc2)cc1.c1ccc([PH+](c2ccccc2)c2ccccc2)cc1.c1ccc([PH+](c2ccccc2)c2ccccc2)cc1.c1ccc([PH+](c2ccccc2)c2ccccc2)cc1", "inactive"],
  ["CC(=O)OC[C@]12C[C@H](OC(=O)CC(C)C)C(C)=C[C@H]1OC1[C@H](O)[C@@H](OC(C)=O)[C@@]2(C)[C@@]12CO2", "active"],
  ["[C-]#[O+].[C-]#[O+].[Mo].[N-]=Nc1ccc([N+](=O)[O-])cc1.[c-]1[c-][c-][cH-][c-]1", "inactive"],
  ["CCC[CH2][Sn]1([CH2]CCC)[O]C(=O)CN=Cc2ccccc2[O]1", "active"],
  ["O=[N+]([O-])c1ccc([N+](=O)[O-])c2ccccc12", "inactive"],
  ["COC(=O)C1=C(C(=O)OC)C2(C)OC1c1ccccc12 (configuration not stated)", "inactive"],
  ["CC(C)CCC1(CCSC(=O)S)C(=O)NC(=O)NC1=O", "inactive"],
  ["CN(C)[PH+](N(C)C)N(C)C.CN(C)[PH+](N(C)C)N(C)C.[C-]#[O+].[C-]#[O+].[C-]#[O+].[C-]#[O+].[C-]#[O+].[C-]#[O+].[Co].[Co].[Hg]", "inactive"],
  ["CCC[CH2][Sn]1([CH2]CCC)[O]CC(C)[O]1 (configuration not stated)", "inactive"],
  ["O=Cc1ccccc1O.O=Cc1ccccc1O.[O]=[Mo]=[O]", "inactive"],
  ["CCC[CH2][Sn]1([CH2]CCC)[O]C(=O)c2cccc(OC)c2[O]1", "active"],
  ["O=C1C(C(Nc2ccccc2)c2ccccc2)=C([O-])c2ccccc21.O=C1C(C(Nc2ccccc2)c2ccccc2)=C([O-])c2ccccc21.[Ni+2] (configuration not stated)", "inactive"],
  ["O=C(N/N=C/c1cc(Br)cc(Br)c1[O-])c1ccccc1O.O=C(N/N=C/c1cc(Br)cc(Br)c1[O-])c1ccccc1O.[Zn+2]", "active"],
  ["Cc1cc(C(C)(C)c2ccc(O)c(C)c2)ccc1O", "inactive"],
  ["CC(C)[S-].CC(C)[S-].[Pt+2].c1ccc([PH+](c2ccccc2)c2ccccc2)cc1.c1ccc([PH+](c2ccccc2)c2ccccc2)cc1", "inactive"],
  ["Cc1ccc2c(-c3ccccc3)c3ccccc3[s+]c2c1", "inactive"],
  ["CCCCCCCCc1ccc(OCCN(CCCl)CCCl)cc1", "inactive"],
  ["Nc1ccccc1O.O.O=C(O)C1[O][Sb][O]C1C(=O)O (configuration not stated)", "inactive"],
  ["C1=C[N-]c2c3c(ccc2=C1)=CC=C[N-]3.C1=C[N-]c2c3c(ccc2=C1)=CC=C[N-]3.F[P-](F)(F)(F)(F)F.[Cu+2]", "inactive"],
  ["CCCCCCCCCCCCCC(=O)[O][Hg][c]1ccccc1", "active"]
]}
